combination Emax overview
Tested on: JJN-3 (Plasma Cell Myeloma)
Assay: combination Emax (second highest fraction inhibited in the dose matrix, 72 h); higher = more inhibition; extreme values may be limits of the assay
# respond with the number and nothing more

// below: answered compounds
Short answer for CS(=O)(=O)CCNCc1ccc(-c2ccc3ncnc(Nc4ccc(OCc5cccc(F)c5)c(Cl)c4)c3c2)o1 [Lapatinib] + NC1(c2ccc(-c3nc4ccn5c(=O)[nH]nc5c4cc3-c3ccccc3)cc2)CCC1 [MK-2206] (first compound max 10 µM, 7x7, partner max 10 µM) : combination Emax was 0.899

Short answer for C[C@@H]1COCCN1c1cc(C2([S@](C)(=N)=O)CC2)nc(-c2ccnc3[nH]ccc23)n1 [AZD6738] + O=C(c1cc(Cc2n[nH]c(=O)c3ccccc23)ccc1F)N1CCN(C(=O)C2CC2)CC1 [Olaparib] (first compound max 10 µM, 7x7, partner max 10 µM) : combination Emax was 0.584

Short answer for NC1(C(=O)N[C@@H](CCO)c2ccc(Cl)cc2)CCN(c2ncnc3[nH]ccc23)CC1 [Capivasertib] + C[C@@H]1COCCN1C2=NC(=NC(=C2)C3(CC3)[S@](=N)(=O)C)C4=C5C=CNC5=NC=C4 [AZD6738] (first compound max 10 µM, 7x7, partner max 10 µM) : combination Emax was 0.603

Switching to the query record.
Short answer for CS(=O)(=O)CCNCc1ccc(-c2ccc3ncnc(Nc4ccc(OCc5cccc(F)c5)c(Cl)c4)c3c2)o1 [Lapatinib] + C[C@@H](Oc1cc(-c2cnn(C3CCNCC3)c2)cnc1N)c1c(Cl)ccc(F)c1Cl [Crizotinib] (first compound max 10 µM, 7x7, partner max 10 µM) : combination Emax was 0.902

###

Test system: OVKATE (Ovarian Carcinoma)
Test: combination Emax (second highest fraction inhibited in the dose matrix, 72 h); higher = more inhibition; extreme values may be limits of the assay
experimental-endpoint: combination Emax
# respond with the number and nothing more

// below: answered compounds
Short answer for CS(=O)(=O)CCNCc1ccc(-c2ccc3ncnc(Nc4ccc(OCc5cccc(F)c5)c(Cl)c4)c3c2)o1 [Lapatinib] + NC1(c2ccc(-c3nc4ccn5c(=O)[nH]nc5c4cc3-c3ccccc3)cc2)CCC1 [MK-2206] (first compound max 10 µM, 7x7, partner max 10 µM) : combination Emax was 0.537

Short answer for CC1(C)CCC(CN2CCN(c3ccc(C(=O)NS(=O)(=O)c4ccc(NCC5CCOCC5)c([N+](=O)[O-])c4)c(Oc4cnc5[nH]ccc5c4)c3)CC2)=C(c2ccc(Cl)cc2)C1 [Venetoclax] + Cn1cnc2c(F)c(Nc3ccc(Br)cc3Cl)c(C(=O)NOCCO)cc21 [Selumetinib] (first compound max 1 µM, 7x7, partner max 3 µM) : combination Emax was 0.217

Switching to the query record.
Short answer for Cc1c2c(nn1C)CSCc1cc(n(C)n1)CSc1cc(c3ccccc3c1)OCCCc1c(C(=O)O)n(C)c3c-2c(Cl)ccc13 [AZD5991] + Cc1cc2ncnn2cc1Nc1ncc2c(n1)n(C1CCOCC1)c(=O)n2C [AZD7648] (first compound max 1 µM, 7x7, partner max 10 µM) : combination Emax was 0.284

###

Test system: CAL-85-1 (Breast Carcinoma)
Experiment: combination Emax (second highest fraction inhibited in the dose matrix, 72 h); higher = more inhibition; extreme values may be limits of the assay
combination Emax overview
# respond with the number and nothing more

// below: answered compounds
Short answer for CC1(C)CCC(CN2CCN(c3ccc(C(=O)NS(=O)(=O)c4ccc(NCC5CCOCC5)c([N+](=O)[O-])c4)c(Oc4cnc5[nH]ccc5c4)c3)CC2)=C(c2ccc(Cl)cc2)C1 [Venetoclax] + CCN(CCO)CCCOc1ccc2c(Nc3cc(CC(=O)Nc4cccc(F)c4)[nH]n3)ncnc2c1 [AZD2811] (first compound max 1 µM, 7x7, partner max 1 µM) : combination Emax was 0.156

Short answer for Cn1cnc2c(F)c(Nc3ccc(Br)cc3Cl)c(C(=O)NOCCO)cc21 [Selumetinib] + CC(C)n1c(=O)n(C)c2cnc3cc(F)c(-c4ccc(OCCCN5CCCCC5)nc4)cc3c21 [AZD1390] (first compound max 10 µM, 7x7, partner max 0.3 µM) : combination Emax was 0.44

Short answer for Cc1c2c(nn1C)CSCc1cc(n(C)n1)CSc1cc(c3ccccc3c1)OCCCc1c(C(=O)O)n(C)c3c-2c(Cl)ccc13 [AZD5991] + Cc1cc2ncnn2cc1Nc1ncc2c(n1)n(C1CCOCC1)c(=O)n2C [AZD7648] (first compound max 1 µM, 7x7, partner max 10 µM) : combination Emax was 0.402

Short answer for CN(C)CCCOc1ccc(-c2ccc3ncc4c(c3c2)n(C2CCOCC2)c(=O)n4C)cn1 [AZD0156] + C[C@@H]1COCCN1C2=NC(=NC(=C2)C3(CC3)[S@](=N)(=O)C)C4=C5C=CNC5=NC=C4 [AZD6738] (first compound max 1 µM, 7x7, partner max 10 µM) : combination Emax was 0.446

Short answer for CS(=O)(=O)CCNCc1ccc(-c2ccc3ncnc(Nc4ccc(OCc5cccc(F)c5)c(Cl)c4)c3c2)o1 [Lapatinib] + Cn1cnc2c(F)c(Nc3ccc(Br)cc3Cl)c(C(=O)NOCCO)cc21 [Selumetinib] (first compound max 10 µM, 7x7, partner max 10 µM) : combination Emax was 0.85

Short answer for Cc1c2c(nn1C)CSCc1cc(n(C)n1)CSc1cc(c3ccccc3c1)OCCCc1c(C(=O)O)n(C)c3c-2c(Cl)ccc13 [AZD5991] + CC(=O)O[C@H]1C(=O)[C@@]2(C)[C@H]([C@H](OC(=O)c3ccccc3)[C@]3(O)C[C@H](OC(=O)[C@H](O)[C@@H](NC(=O)c4ccccc4)c4ccccc4)C(C)=C1C3(C)C)[C@]1(OC(C)=O)CO[C@@H]1C[C@@H]2O [Paclitaxel] (first compound max 1 µM, 7x7, partner max 3 µM) : combination Emax was 0.806

Short answer for NC1(C(=O)N[C@@H](CCO)c2ccc(Cl)cc2)CCN(c2ncnc3[nH]ccc23)CC1 [Capivasertib] + COc1nnc2ccc(N3CCC(c4ccc(OCCN5CCN(C)C(=O)[C@H]5C)cc4)CC3)nn12 [AZD5153] (first compound max 10 µM, 7x7, partner max 1 µM) : combination Emax was 0.434

Short answer for CC1(C)CCC(CN2CCN(c3ccc(C(=O)NS(=O)(=O)c4ccc(NCC5CCOCC5)c([N+](=O)[O-])c4)c(Oc4cnc5[nH]ccc5c4)c3)CC2)=C(c2ccc(Cl)cc2)C1 [Venetoclax] + COc1cc(Nc2ncc3c(n2)-c2ccc(Cl)cc2C(c2c(F)cccc2OC)=NC3)ccc1C(=O)O [Alisertib] (first compound max 1 µM, 7x7, partner max 10 µM) : combination Emax was 0.438

Next:
Short answer for C[C@@H]1COCCN1c1cc(C2([S@](C)(=N)=O)CC2)nc(-c2ccnc3[nH]ccc23)n1 [AZD6738] + C1CC(C1)(C(=O)[O-])C(=O)[O-].N.N.[Pt+2] [Carboplatin] (first compound max 10 µM, 7x7, partner max 10 µM) : combination Emax was 0.382

Short answer for Cn1cnc2c(F)c(Nc3ccc(Br)cc3Cl)c(C(=O)NOCCO)cc21 [Selumetinib] + CCN(CCO)CCCOc1ccc2c(Nc3cc(CC(=O)Nc4cccc(F)c4)[nH]n3)ncnc2c1 [AZD2811] (first compound max 10 µM, 7x7, partner max 1 µM) : combination Emax was 0.483

Short answer for Cc1cc2ncnn2cc1Nc1ncc2c(n1)n(C1CCOCC1)c(=O)n2C [AZD7648] + COc1cc([C@@H]2c3cc4c(cc3[C@@H](O[C@@H]3O[C@@H]5CO[C@@H](C)O[C@H]5[C@H](O)[C@H]3O)[C@H]3COC(=O)[C@H]23)OCO4)cc(OC)c1O [Etoposide] (first compound max 10 µM, 7x7, partner max 10 µM) : combination Emax was 0.629

Short answer for CN(CCO)CC[C@H](CSc1ccccc1)Nc1ccc(S(=O)(=O)NC(=O)c2ccc(N3CCC([C@@H](O)c4ccccc4-c4ccc(Cl)cc4)CC3)cc2)cc1S(=O)(=O)C(F)(F)F [AZD4320] + CS(=O)(=O)CCNCc1ccc(-c2ccc3ncnc(Nc4ccc(OCc5cccc(F)c5)c(Cl)c4)c3c2)o1 [Lapatinib] (first compound max 1 µM, 7x7, partner max 10 µM) : combination Emax was 0.957

###

Bliss excess overview
Test system: A375 (Melanoma);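 also: after 72 h of two-drug dosing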
Assay: Bliss excess, mean over the matrix (fraction); higher = more synergy
# respond with the number and nothing more

// below: answered molecules
// Bliss excess (A375 (Melanoma)) for O=C(c1cc(Cc2n[nH]c(=O)c3ccccc23)ccc1F)N1CCN(C(=O)C2CC2)CC1 [Olaparib] + COc1nnc2ccc(N3CCC(c4ccc(OCCN5CCN(C)C(=O)[C@H]5C)cc4)CC3)nn12 [AZD5153] (first compound max 10 µM, 7x7, partner max 1 µM) = -0.0229

// Bliss excess (A375 (Melanoma)) for COc1cccc(OCCCN)c1-c1cc(Nc2cnc(C#N)cn2)n[nH]1 [Prexasertib] + C=CCn1c(=O)c2cnc(Nc3ccc(N4CCN(C)CC4)cc3)nc2n1-c1cccc(C(C)(C)O)n1 [AZD1775] (first compound max 1 µM, partner max 1 µM) = 0.0888

Switching to the query record.
// Bliss excess (A375 (Melanoma)) for CC(=O)c1c(C)c2cnc(Nc3ccc(N4CCNCC4)cn3)nc2n(C2CCCC2)c1=O [Palbociclib] + CC1(C)CCC(CN2CCN(c3ccc(C(=O)NS(=O)(=O)c4ccc(NCC5CCOCC5)c([N+](=O)[O-])c4)c(Oc4cnc5[nH]ccc5c4)c3)CC2)=C(c2ccc(Cl)cc2)C1 [Venetoclax] (first compound max 10 µM, 7x7, partner max 1 µM) = -0.0197
